# System Under Test: Maternal embryonic leucine zipper kinase (Homo sapiens);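 also: each value is the mean inhibition of MELK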
# Experimental Parameters: at 1 µM
Readout Kind: inhibition

Lookup: Quick one: inhibition of `Cc1cccc2c1NC(=O)/C2=N\Nc1ccc(S(N)(=O)=O)cc1` ?
Found: 2.1%

Lookup: Request: `Cc1ccc2c(-c3ccnc(Nc4ccccc4)n3)c(-c3ccc(F)cc3)nn2n1`
Found: 5.51%

Lookup: Request: `c1ccc(COc2ccc(Nc3ncnc4ccc(-c5ccco5)cc34)cc2)cc1`
Found: -3.64%

Lookup: Request: `COc1ccc2[nH]c3c4[nH]c5ccc(OC)cc5c4c4c(c3c2c1)C(=O)NC4=O`
Found: 77.6%

Lookup: Request: `CN(C)CCOc1ccc(-c2nc(-c3ccncc3)c(-c3ccc4c(c3)CC/C4=N\O)[nH]2)cc1`
Found: 3.61%

Lookup: Request: `Fc1ccc(-c2nn3ccccc3c2-c2ccncc2)cc1`
Found: 6.94%

Lookup: Request: `COc1ccc(-c2nn3ncccc3c2-c2ccnc(Nc3ccc4c(c3)OCCO4)n2)cc1`
Found: 2.58%

Lookup: Request: CC1=C(C(=O)Nc2cc(Cl)c3[nH]ncc3c2)C(c2ccc(C(F)(F)F)cc2)CC(=O)N1 (stereo not given)
Found: 7.81%

Lookup: Request: `CCn1c(-c2nonc2N)nc2ccccc21`
Found: 7.45%

Lookup: Request: `CS(=O)(=O)CCNCc1coc(-c2ccc3ncnc(Nc4ccc(OCc5ccccc5)cc4)c3c2)c1`
Found: 6.96%
